Values from ChEMBL document CHEMBL3352147

experiment: Antiproliferative activity against HEK293T cells assessed as inhibition of cell proliferation at 10 uM by MTT assay
Assay type: cell-based, HEK-293T
particulars: human
observable: inhibition at 10 µM (%)
Numbers only, in %.

1) O=c1[nH]n(S(=O)(=O)c2ccc(-c3cnc(C4CC4)o3)cc2)c2ccccc12	80.9

Each molecule below has a reported value. Please supply its inhibition at 10 µM.
1. Cc1ccc2c(c1)CCN2S(=O)(=O)c1ccc(-c2cnc(C3CC3)o2)cc1
2. O=S(=O)(c1ccc(-c2cnc(C3CC3)s2)cc1)N1CCc2ccccc21
3. N#Cc1ccc2c(c1)CCN2S(=O)(=O)c1ccc(-c2cnc(C3CC3)o2)cc1

Return:
74.7
-15.4
37.4
